Test: qHTS Assay for Identifying Gametocytocidal Compounds (AID 743244);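 further: on the % scale 0 is the no-effect control and ±100 the full control effect; actives lower the fluorescent signal which means gametocytes are killed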
Details: P. falciparum 3D7 stage III-V gametocytes, alamarBlue, 72 h; hits give low values
Results filed as inconclusive are left out. Activity calls are given as the source filed them. The call rests on the fitted dose curve; in most records, active means well fitted curve in the direction sought with a large enough effect; inconclusive means small, poorly fitted or top-dose-only effect, or another doubt; inactive means no such curve, though single readings can be large or run the other way.
Catalogue of compounds with associated max response

Consider the worked cases shown below.
O.O.O.O.O.O.O.O=S(=O)([O-])[O-].[Co+2] | 0.797% (inactive)
CC(CN1c2ccccc2Sc2cccnc21)N(C)C (stereo not drawn) | 4.99% (inactive)
CCCCC | 2.54% (inactive)
CC(O)CN(C)C (stereo not drawn) | -6.61% (inactive)
CC(C)[C@@H]1CC[C@@H](C)C[C@H]1OC(=O)c1ccccc1O | 9.93% (inactive)

Request: # max response lookup, item CCCCCCCCCCCCOCCCN
Result: -2.81% (inactive)

Request: # max response lookup, item CC1(O)CCC(C(C)(C)O)CC1 (stereo not drawn)
Result: 5.51% (inactive)

Request: # max response lookup, item O=C(CCCN1CCC(C(=O)c2ccc(F)cc2)CC1)c1ccc(F)cc1
Result: 18.4% (inactive)

###

Experiment: Drug repurposing screens with cells derived from glioblastoma tumor samples (AID 1345199); further: on the % scale 0 is the no-effect control and ±100 the full control effect; nearly all actives have a fitted effect of over 40% in size
Conditions: GBM patient neurospheres viability, ATP luminescence, 48 h; at 45.9 µM (top of the series); tumour line D
Records with an inconclusive call do not appear.
assayEndpoint: activity, negative = cell killing (%)
Report only the number, with the unit % understood.

Consider the worked cases shown below.
CCc1cn([C@H]2C[C@H](O)[C@@H](CO)O2)c(=O)[nH]c1=O | -5.04
CS(=O)(=O)OCC(O)C(O)COS(C)(=O)=O (stereo unspecified) | -10.3

Request: # activity, negative = cell killing lookup, item CC(C)CCCCCCc1ccc(O)cc1
Result: -27.3

Request: # activity, negative = cell killing lookup, item Nc1nccs1
Result: -10.5

Request: # activity, negative = cell killing lookup, item O=C(NNCNNC(=O)c1ccncc1)c1ccncc1
Result: -9.77

Request: # activity, negative = cell killing lookup, item Cc1cc2nc3c(=O)[nH]c(=O)nc-3n(C[C@H](O)[C@H](O)[C@H](O)COP(=O)(O)OP(=O)(O)OC[C@H]3O[C@@H](n4cnc5c(N)ncnc54)[C@H](O)[C@@H]3O)c2cc1C
Result: -9.51

Request: # activity, negative = cell killing lookup, item NC(=O)[C@@H]1CCCN1C(=O)[C@H](Cc1cnc[nH]1)NC(=O)[C@@H]1CCC(=O)N1
Result: 6.97

Request: # activity, negative = cell killing lookup, item O=[N+]([O-])O[C@@H]1CO[C@H]2[C@@H]1OC[C@@H]2O
Result: -5.25

###

System: CP250
Test: qHTS profiling for inhibitors of Plasmodium falciparum proliferation (AID 504749); further: nearly all actives have a fitted effect of over 60% in size
Conditions: P. falciparum in erythrocytes, SYBR Green DNA, 72 h; series mostly up to 28.7 µM
Experimental: NIH National Institute of Allergy and Infectious Diseases [NIAID] NIH Chemical Genomics Center [NCGC] […] Because mature erythrocytes lack DNA, only Plasmodium-derived DNA is detected. NCGC Assay Protocol Summary: The SYBR Green viability assay was adapted from a method described previously (Plouffe et al., 2008). […] The following morning, fluorescence intensity at 485(14) nm excitation and 535(25) nm emission wavelengths was measured on an EnVision (Perkin Elmer) plate reader. […]
Records with an inconclusive call do not appear. Active and inactive are the calls of the source. Calls follow the shape of the dose curve; as a rule, active = well fitted inhibition curve with a large enough effect; inconclusive = small, poorly fitted or top-dose-only effect; inactive = flat fitted curve, though single readings scatter.
Respond with a class label; see 1 = active, -1 = inactive

O=C1NCCN1c1ncc([N+](=O)[O-])s1 | -1
CC(/C=C/C=C(\C)C(=O)O[C@@H]1O[C@H](CO[C@@H]2O[C@H](CO)[C@@H](O)[C@H](O)[C@H]2O)[C@@H](O)[C@H](O)[C@H]1O)=C\C=C\C=C(C)\C=C\C=C(/C)C(=O)O[C@@H]1O[C@H](CO[C@@H]2O[C@H](CO)[C@@H](O)[C@H](O)[C@H]2O)[C@@H](O)[C@H](O)[C@H]1O | -1
CN(C)CCCSc1ccccc1NC(=O)/C=C/c1ccccc1 | -1
CCCc1ccc(C(=O)O)cc1 | -1
O=[N+]([O-])c1c(Cl)cccc1-c1c[nH]cc1Cl | -1

Next:
Request: Hi, sorry to bother you, what did the test record for FC(F)OC(Cl)C(F)(F)F (stereo unspecified) ?
Result: -1

###

Tested on: CP256
Assay: qHTS profiling for inhibitors of Plasmodium falciparum proliferation (AID 504749); further: nearly all actives have a fitted effect of over 60% in size
Conditions: P. falciparum in erythrocytes, SYBR Green DNA, 72 h; series mostly up to 28.7 µM
Results filed as inconclusive are left out. Activity calls are given as the source filed them. Calls follow the shape of the dose curve; as a rule, active = well fitted inhibition curve with a large enough effect; inconclusive = small, poorly fitted or top-dose-only effect; inactive = flat fitted curve, though single readings scatter.
Respond with a class label; see t for active, f for inactive

Examples from the recorded data:
Cc1cc2nc3c(=O)[nH]c(=O)nc-3n(C[C@H](O)[C@H](O)[C@H](O)COP(=O)(O)OP(=O)(O)OC[C@H]3O[C@@H](n4cnc5c(N)ncnc54)[C@H](O)[C@@H]3O)c2cc1C | f
CN(C)C(=O)CCSC(SCCC(=O)O)c1cccc(/C=C/c2ccc3ccc(Cl)cc3n2)c1 (configuration not stated) | f
C=CCN1CCCC1CNC(=O)c1cc(S(N)(=O)=O)cc(OC)c1OC (configuration not stated) | f
OCc1ccccc1 | t
CCN(CC)CCC(=O)N1c2ccccc2Sc2ccc(Cl)cc21 | t
NC(=O)Oc1ccc(Cc2ccccc2)cc1 | f

Request: Hi, sorry to bother you, what did the test record for FC(F)OC(Cl)C(F)(F)F (configuration not stated) ?
Result: f

###

Test system: PC26
Test: qHTS profiling for inhibitors of Plasmodium falciparum proliferation (AID 504749); further: nearly all actives have a fitted effect of over 60% in size
Details: P. falciparum in erythrocytes, SYBR Green DNA, 72 h; series mostly up to 28.7 µM
Results filed as inconclusive are left out. Active and inactive are the calls of the source. Calls come from the whole dose curve; as a rule, active = well fitted inhibition curve with a large enough effect; inconclusive = small, poorly fitted or top-dose-only effect; inactive = flat fitted curve, though single readings scatter.
Respond with a class label; see yes (active), no (inactive)

C=CC(C)(O)CC/C=C(\C)CCC=C(C)C (stereo unspecified) | no
NC(=O)C1c2ccccc2CCc2ccccc21 | no
CC(C)=CCC/C(C)=C/C=C/C(C)=C/C=C/C(C)=C/C=C/C=C(C)/C=C/C=C(C)/C=C/C=C(\C)CCC=C(C)C | no
O=C(O)/C=C/C(=O)Nc1ccc(S(=O)(=O)Nc2nccs2)cc1 | no
Cc1ncc[nH]1 | no

Request: Hi, sorry to bother you, what did the test record for C=CC(=O)O ?
Result: no

Request: Hi, sorry to bother you, what did the test record for CCOC(=O)c1cc(-c2ccccc2)nc2ccc(C)cc12 ?
Result: no

###

Test: S16 Schwann cell PMP22 intronic element firefly luciferase assay (AID 624032); further: nearly all actives have a fitted effect of over 30% in size; further: potency means the concentration at half of the fitted maximal effect
Settings: S16 rat Schwann cells, PMP22 element FLuc, 24 h; series mostly up to 57.5 µM
Protocol: Charcot-Marie-Tooth-Association [CMTA] National Center for Advancing Translational Sciences [NCATS] […] The FLuc-expressing S16 cells were seeded in white solid 1536-well plates at between 500-750 cells/4uL in DMEM medium containing 10% FBS, w/o phenol red. […] Luminescence was measured on a ViewLux plate reader (Perkin Elmer). The % activity was determined by normalizing to the average readings of PTC124 (a positive control) - treated cells relative to DMSO-treated cells (0% Activity). […]
Records with an inconclusive call do not appear. Activity calls are given as the source filed them. The call rests on the fitted dose curve; in most records, active means well fitted inhibition curve with a large enough effect; inconclusive means small, poorly fitted or top-dose-only effect; inactive means no such curve, though single readings can be large or run the other way.
assayEndpoint: Potency

Consider the worked cases shown below.
COc1cc(NCCCC(C)N)c2ncccc2c1 (configuration not stated) | 6.42 µM (active)
CC1=CC(=O)NS(=O)(=O)O1 | inactive
CC(C)NCC(O)COc1ccccc1-n1cccc1 (configuration not stated) | inactive
CN1c2c(nc(N)[nH]c2=O)NCC1CNc1ccc(C(=O)NC(CCC(=O)O)C(=O)O)cc1 (configuration not stated) | inactive
O=C(O)[C@H]1CN(C/C=C/P(=O)(O)O)CCN1 | inactive

Turning to the following molecule.
Request: # Potency lookup, item COc1cc2c(cc1OC)[C@@H](Cc1cc(OC)c(OC)c(OC)c1)[N+](C)(CCCOC(=O)CC/C=C/CCC(=O)OCCC[N+]1(C)CCc3cc(OC)c(OC)cc3[C@H]1Cc1cc(OC)c(OC)c(OC)c1)CC2 (some centres not stated)
Result: inactive

###

Catalogue of compounds with associated ratio activity, negative = inhibition
Assay: S16 Schwann cell PMP22 intronic element beta-lactamase assay (AID 624044);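 further: 0% = DMSO and -100% = potassium clavulanate positive control; nearly all actives have a fitted effect of over 15% in size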
Settings: S16 rat Schwann cells, PMP22 element beta-lactamase FRET, 24 h; at 38.3 µM (top of the series) unless noted
Records with an inconclusive call do not appear. Calls of active or inactive are those of the source. The call rests on the fitted dose curve.

Consider the worked cases shown below.
Cn1c(=O)c2c(ncn2CCOC(=O)C(C)(C)Oc2ccc(Cl)cc2)n(C)c1=O | -5.21% (inactive)
CCOC(=O)C1=C(COCCN)NC(C)=C(C(=O)OC)C1c1ccccc1Cl (configuration not stated) | -3.48% (inactive)
Cn1cc(NC(=O)c2cc(NC(=O)c3cc(NC=O)cn3C)cn2C)cc1C(=O)NCCC(=N)N | 5.48% (inactive)
CCCCCc1ccc(C)cc1O | 4.39% (inactive)
O=C1NCCN1c1ncc([N+](=O)[O-])s1 | 1.39% [at 17.1 µM] (inactive)
C[C@]12CCC(=O)C[C@@H]1CC[C@@H]1[C@@H]2CC[C@]2(C)C=CC[C@@H]12 | 4.94% (inactive)

Turning to the following compound.
Request: # ratio activity, negative = inhibition lookup, item CCCCCCOC(=O)c1cccnc1
Result: 2.38% (inactive)

Value source: PubChem BioAssay (NCATS)
